Reference source for all entries: patent US8889704B2

# pIC50 per entry for PIM-1 (Homo sapiens, UniProt P11309)
Where a name gives a salt, the structure may show the parent alone.
# log scale: pIC50 equals minus log10 of the concentration in mol/L

For orientation, consider the following solved cases.
Compound	pIC50
CNC(=O)c1ccc2ccc(-c3nnc4ccc([C@@H](N5CC[C@H](N)C5)C(F)(F)F)cn34)nc2c1 [Example 42, dihydrochloride]	9.59
Cc1cc(OC(C)C)c2nc(-c3nnc4ccc([C@@H](N5CC[C@H](N)C5)C(F)(F)F)cn34)ccc2c1 [Example 128, hydrochloride]	9.24
COC[C@@H](C)Oc1cccc2ccc(-c3nnc4ccc([C@@H](N5CC[C@H](N(C)C)C5)C(F)(F)F)cn34)nc12 [Example 303, dihydrochloride]	8.88
C[C@]1(N)CCN([C@H](c2ccc3nnc(-c4ccc5cccc(C6CC6)c5n4)n3c2)C(F)(F)F)C1 [Example 97, dihydrochloride]	9.96
N#Cc1cccc2ccc(-c3nnc4ccc([C@@H](N5CC[C@H](N)C5)C(F)(F)F)cn34)nc12 [Example 88, dihydrochloride]	8.49

QUERY: pIC50 lookup needed for N[C@H]1CCN([C@H](c2ccc3nnc(-c4ccc5ccc(F)c(C6CC6)c5n4)n3c2)C(F)(F)F)C1 [Example 60, dihydrochloride] , thanks.
RESULT: 9.72

====

biological target: GST-tagged recombinant full-length human Pim-2 (Homo sapiens); construct: GST-tagged recombinant full-length human Pim-2; GST; assay: PIM-2 Assay (as Example A); conditions: averaged IC50; 4 μM ATP, 1.0 μM PIM2tide, 1.5 nM Pim-2
Counter-ions that a name gives are not always drawn.
Measured parameter: IC50 (nM)
State the answer as a number, implicitly in nM.

Molecule	IC50 (nM)
Cc1c(-c2cnn(C)c2)ccc2ccc(-c3nnc4ccc([C@@H](N5CC[C@H](N)C5)C(F)(F)F)cn34)nc12 [Example 191, dihydrochloride]	74

QUERY: IC50 lookup needed for COc1cccc2ccc(-c3nnc4ccc([C@H](N5CC[C@H](N)C5)C(F)(F)F)cn34)nc12 [Example 8, dihydrochloride] , thanks.
RESULT: 151

====

target: recombinant rat PIM-3 (Rattus norvegicus, UniProt O70444); experiment: PIM-3 Assay (as Example A); conditions: averaged IC50; 30 μM ATP, 3.75 μM PIM2tide, 0.5 nM PIM-3
Structures can show the parent of a compound that is named as a salt.
Reported IC50 values for the following compounds.
State the answer as a number, implicitly in nM.

Compound	IC50, nM
CC(C)(O)COc1cc2nc(-c3nnc4ccc([C@H](N5CC[C@](C)(N)C5)C(F)(F)F)cn34)ccc2cc1F [Example 301, dihydrochloride]	0.2
COCC(C)(C)Oc1cccc2ccc(-c3nnc4ccc([C@@H](N5CC[C@H](N)C5)C(F)(F)F)cn34)nc12 [Example 263, formate]	3
N[C@H]1CCN([C@H](c2ccc3nnc(-c4ccc5cc(F)c(OCC(F)(F)F)cc5n4)n3c2)C(F)(F)F)C1 [Example 226, dihydrochloride]	0.5
CC1(N)CCN(C(c2ccc3nnc(-c4ccc5cccc(OCC6CC6)c5n4)n3c2)C(F)(F)F)C1 (stereo not drawn) [Example 27, dihydrochloride]	25
CCC(C)(C)C(=O)OCCOc1cc2nc(-c3nnc4ccc([C@@H](N5CC[C@H](N)C5)C(F)(F)F)cn34)ccc2cc1F [Example 289]	1.6

Here is another compound to look at.
QUERY: IC50 lookup needed for CN[C@H]1CCN(C(c2ccc3nnc(-c4ccc5cccc(OCC6CC6)c5n4)n3c2)C(F)(F)F)C1 (stereo partly drawn) [Example 20, dihydrochloride] , thanks.
RESULT: 3.3

====

target: recombinant rat PIM-3 (Rattus norvegicus); test: PIM-3 Assay (as Example A); details: averaged IC50; 30 μM ATP, 3.75 μM PIM2tide, 0.5 nM PIM-3
Structures can show the parent of a compound that is named as a salt.
Reported pIC50 values for the following compounds.
# log scale: pIC50 equals minus log10 of the concentration in mol/L

For orientation, consider the following solved cases.
Compound	Meas value
CC(C)Oc1cccc2ccc(-c3nnc4ccc([C@@H](N5CC[C@H](NCCF)C5)C(F)(F)F)cn34)nc12 [Example 81, dihydrochloride]	8.55
Cc1c(OC(C)C)ccc2ccc(-c3nnc4ccc([C@@H](N5CC[C@H](N)C5)C(F)(F)F)cn34)nc12 [Example 116, hydrochloride]	8.74
CC(C)C(=O)OCCOc1cc2nc(-c3nnc4ccc([C@@H](N5CC[C@H](N)C5)C(F)(F)F)cn34)ccc2cc1F [Example 285]	8.07
COCCOc1ccc2cc(F)c(-c3nnc4ccc(C(N5CC[C@](C)(N)C5)C(F)(F)F)cn34)nc2c1 (stereo in doubt) [Example 327]	8.87

QUERY: pIC50 lookup needed for COCCc1ccc2ccc(-c3nnc4ccc([C@@H](N5CC[C@H](N)C5)C(F)(F)F)cn34)nc2c1F [Example 166, dihydrochloride] , thanks.
RESULT: 8.05

QUERY: Further, for CC(C)Oc1cc2nc(-c3nnc4ccc([C@@H](N5CC[C@H](N)C5)C(F)(F)F)cn34)ccc2cc1F [Example 119, hydrochloride] ?
RESULT: 9.05

QUERY: Further, for COCCOc1ccc2cc(F)c(-c3nnc4ccc([C@@H](N5CC[C@H](N)C5)C(F)(F)F)cn34)nc2c1 [Example 326] ?
RESULT: 8.87

QUERY: Further, for N[C@H]1CCN([C@H](c2ccc3nnc(-c4ccc5cccc(OCC6CC6)c5n4)n3c2)C(F)(F)F)C1 (single isomer, unassigned) [Example 11, dihydrochloride] ?
RESULT: 8.96

QUERY: Further, for N#Cc1cccc2ccc(-c3nnc4ccc([C@@H](N5CC[C@H](N)C5)C(F)(F)F)cn34)nc12 [Example 88, dihydrochloride] ?
RESULT: 7.74

====

target: recombinant rat PIM-3 (Rattus norvegicus, UniProt O70444); assay: PIM-3 Assay (as Example A); settings: averaged IC50; 30 μM ATP, 3.75 μM PIM2tide, 0.5 nM PIM-3
Structures can show the parent of a compound that is named as a salt.
Measured parameter: IC50 (nM)
State the answer as a number, implicitly in nM.

For orientation, consider the following solved cases.
Compound	IC50 [nM]
N[C@@H]1CCN([C@H](c2ccc3nnc(-c4ccc5ccc(C6CC6)cc5n4)n3c2)C(F)(F)F)C1 [Example 61, dihydrochloride]	3.7
COC[C@@H](C)Oc1cc2nc(-c3nnc4ccc([C@@H](N5CC[C@H](N)C5)C(F)(F)F)cn34)ccc2cc1F [Example 160, dihydrochloride]	0.4
CC(C)Sc1ccc2ccc(-c3nnc4ccc([C@@H](N5CC[C@H](N)C5)C(F)(F)F)cn34)nc2c1 [Example 268, hydrochloride]	3.4
CCOc1cc2nc(-c3nnc4ccc([C@@H](N5CC[C@](C)(N)C5)C(F)(F)F)cn34)ccc2cc1F [Example 247, dihydrochloride]	1.2
COC[C@@H](C)Oc1ccc2ccc(-c3nnc4ccc([C@H](N5CC[C@](C)(N)C5)C(F)(F)F)cn34)nc2c1	0.4

Here is another compound to look at.
QUERY: Notebook: pull reported IC50 for recombinant rat PIM-3 (Rattus norvegicus, UniProt O70444), entry CCOc1cc2nc(-c3nnc4ccc([C@H](N5CC[C@@H](CN)C5)C(F)(F)F)cn34)ccc2cc1F [Example 295, hydrochloride]
RESULT: 12

====

Reported pIC50 values for the following molecules.
molecular target: GST-tagged recombinant full-length human Pim-2 (Homo sapiens, UniProt Q9P1W9); construct: GST-tagged recombinant full-length human Pim-2; GST; assay: PIM-2 Assay (as Example A); conditions: averaged IC50; 4 μM ATP, 1.0 μM PIM2tide, 1.5 nM Pim-2
Sequence (Q9P1W9 whole entry): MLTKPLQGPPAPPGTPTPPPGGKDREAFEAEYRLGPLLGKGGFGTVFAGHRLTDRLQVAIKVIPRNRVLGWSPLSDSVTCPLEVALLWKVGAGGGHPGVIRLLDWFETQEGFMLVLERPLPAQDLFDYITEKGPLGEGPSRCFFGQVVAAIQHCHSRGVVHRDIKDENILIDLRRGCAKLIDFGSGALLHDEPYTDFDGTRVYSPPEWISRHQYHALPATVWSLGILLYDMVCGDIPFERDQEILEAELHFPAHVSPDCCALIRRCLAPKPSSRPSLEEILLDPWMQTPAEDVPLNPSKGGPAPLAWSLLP
Structures can show the parent of a compound that is named as a salt.
# log scale: pIC50 equals minus log10 of the concentration in mol/L

For orientation, consider the following solved cases.
Molecule	Tested system	pIC50
CCOc1ccc2ccc(-c3nnc4ccc([C@H](N5CC[C@H](N)C5)C(F)(F)F)cn34)nc2c1 [Example 256, dihydrochloride]	GST-tagged recombinant full-length human Pim-2 (Homo sapiens, UniProt Q9P1W9)	6.70
COC(C)(C)COc1cccc2ccc(-c3nnc4ccc([C@@H](N5CC[C@H](N)C5)C(F)(F)F)cn34)nc12 [Example 276, formate]	GST-tagged recombinant full-length human Pim-2 (Homo sapiens, UniProt Q9P1W9)	7.36
COc1cc(F)cc2ccc(-c3nnc4ccc([C@H](N5CC[C@](C)(N)C5)C(F)(F)F)cn34)nc12	GST-tagged recombinant full-length human Pim-2 (Homo sapiens, UniProt Q9P1W9)	7.48

QUERY: pIC50 lookup needed for N[C@H]1CCN([C@H](c2ccc3nnc(-c4ccc5ccc(O[C@@H]6CCC[C@H]6O)cc5n4)n3c2)C(F)(F)F)C1 (single isomer, unassigned; diastereomer 2) [Example 320, di-hydrochloride] , thanks.
RESULT: 6.95

QUERY: Further, for CC(C)Oc1cccc2ccc(-c3nnc4ccc([C@H](N5CC[C@](C)(N)C5)C(F)(F)F)cn34)nc12 [Example 92, dihydrochloride] ?
RESULT: 7.48
